molecular target: NS3-NS4 (Hepatitis C virus genotype 1a, UniProt P27958)
Sequence (P27958 1027-1657): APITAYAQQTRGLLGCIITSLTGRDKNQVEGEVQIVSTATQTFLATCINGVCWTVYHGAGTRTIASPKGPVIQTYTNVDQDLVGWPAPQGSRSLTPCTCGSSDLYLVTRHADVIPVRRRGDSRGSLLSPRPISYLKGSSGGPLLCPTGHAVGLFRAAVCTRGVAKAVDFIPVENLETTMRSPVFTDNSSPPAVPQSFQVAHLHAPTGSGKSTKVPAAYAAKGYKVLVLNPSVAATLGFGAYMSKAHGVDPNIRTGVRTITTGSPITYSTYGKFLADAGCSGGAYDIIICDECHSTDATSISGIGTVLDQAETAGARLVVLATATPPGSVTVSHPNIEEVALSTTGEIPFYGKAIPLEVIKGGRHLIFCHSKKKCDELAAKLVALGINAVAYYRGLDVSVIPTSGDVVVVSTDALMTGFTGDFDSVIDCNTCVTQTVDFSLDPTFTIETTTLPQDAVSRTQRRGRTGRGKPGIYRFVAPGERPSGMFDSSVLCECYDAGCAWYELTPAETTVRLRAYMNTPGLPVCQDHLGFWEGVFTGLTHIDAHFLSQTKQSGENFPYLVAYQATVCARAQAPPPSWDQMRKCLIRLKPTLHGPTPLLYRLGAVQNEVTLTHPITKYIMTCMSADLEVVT
Sequence (P27958 1658-1711): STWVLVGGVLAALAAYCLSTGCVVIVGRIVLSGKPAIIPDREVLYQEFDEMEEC
pIC50: −log10 of the molar value.
# reported pIC50; entries follow

Worked cases, pIC50 given:
[
  {
    "compound.structure.string": "CC(C)(C)OC(=O)N[C@H]1CCCCC/C=C\\[C@@H]2C[C@@]2(C(=O)NS(=O)(=O)c2ccccc2F)NC(=O)[C@@H]2C[C@@H](OC(=O)N3Cc4cccc(F)c4C3)CN2C1=O",
    "assay.target": "NS3-NS4 (Hepatitis C virus genotype 1a, UniProt P27958)",
    "measurement": "> 7.00"
  },
  {
    "compound.structure.string": "CCc1ccc(S(=O)(=O)NC(=O)[C@@]23C[C@H]2/C=C\\CCCCC[C@H](NC(=O)OC(C)(C)C)C(=O)N2C[C@H](OC(=O)N4Cc5cccc(F)c5C4)C[C@H]2C(=O)N3)cc1",
    "assay.target": "NS3-NS4 (Hepatitis C virus genotype 1a, UniProt P27958)",
    "measurement": "> 7.00"
  },
  {
    "compound.structure.string": "CCCS(=O)(=O)NC(=O)[C@@]12C[C@H]1/C=C\\CCCCC[C@H](NC(=O)OC(C)(C)C)C(=O)N1C[C@H](OC(=O)N3Cc4cccc(F)c4C3)C[C@H]1C(=O)N2",
    "assay.target": "NS3-NS4 (Hepatitis C virus genotype 1a, UniProt P27958)",
    "measurement": "> 7.00"
  },
  {
    "compound.structure.string": "CC(C)(C)OC(=O)N[C@H]1CCCCC/C=C\\[C@@H]2C[C@@]2(C(=O)NS(=O)(=O)Cc2c(Cl)cccc2Cl)NC(=O)[C@@H]2C[C@@H](OC(=O)N3Cc4cccc(F)c4C3)CN2C1=O",
    "assay.target": "NS3-NS4 (Hepatitis C virus genotype 1a, UniProt P27958)",
    "measurement": "> 7.00"
  }
]

Query: For the compound CN(C(=O)N[C@H]1CCCCC/C=C\[C@@H]2C[C@@]2(C(=O)NS(=O)(=O)C2(C)CC2)NC(=O)[C@@H]2C[C@@H](OC(=O)N3Cc4cccc(Cl)c4C3)CN2C1=O)C(C)(C)C , what pIC50 is on record?
Reply: > 7.00
